B1: OR4K15 (parent)
chain: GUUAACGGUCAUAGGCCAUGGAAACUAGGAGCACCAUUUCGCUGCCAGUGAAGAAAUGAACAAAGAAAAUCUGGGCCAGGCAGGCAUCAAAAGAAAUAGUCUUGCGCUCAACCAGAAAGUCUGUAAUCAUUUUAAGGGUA

- Variants of: B1
- ASSAY PROCEDURE: self-cleavage, relative activity (ratio to wild type); higher = more cleavage; in vitro, sequencing; the parent is a self-cleaving ribozyme
Rule: self-cleavage under 1 gives N, otherwise Y.

INSERT INTO measurements (variant_key, class_name) VALUES
  ('A27G U122C', 'Y'),
  ('A60G A114G', 'N'),
  ('U9C G84A', 'Y'),
  ('U43A U49C', 'Y'),
  ('A60G A98G', 'N'),
  ('G14A A95G', 'Y'),
  ('A30G C112U', 'N'),
  ('U43A', 'Y'),
  ('U2C C42U', 'Y'),
  ('A96G U131G', 'N'),
  ('A24G C81U', 'N');
